Tested on: omalizumab
Assay: Freeze/thaw stress (6 cycles), monomer by SE-HPLC (Example 57)
Type: physicochemical
Conditions: excipient 100 mM, omalizumab 2 mg/mL, 20 mM Histidine pH 6.0, freeze (−80° C.)/thaw
# note: exactly 70% is not below, so it is No; use Yes for % increase in monomer content vs. control strictly under it

{"molecule": "O=C1O[C@@H]([C@H](O)CO)[C@@H](O)[C@H]1O [Gulonolactone]", "label_class": "Yes"}
{"molecule": "CC(=O)N[C@@H]1C(O)O[C@H](CO)[C@@H](O)[C@@H]1O (stereo partly drawn) [N-acetyl mannosamine]", "label_class": "Yes"}
{"molecule": "O=C(CO)[C@@H](O)[C@H](O)[C@H](O)[C@H](O)CO [Sedoheptulose]", "label_class": "Yes"}
{"molecule": "OC[C@H]1O[C@H](O[C@H]2O[C@H](CO)[C@@H](O)[C@H](O)[C@H]2O)[C@H](O)[C@@H](O)[C@@H]1O [trehalose]", "label_class": "No"}
{"molecule": "O=C(CO)[C@@H](O[C@H]1O[C@H](CO)[C@@H](O)[C@H](O)[C@H]1O)[C@H](O)[C@H](O)CO [Turanose]", "label_class": "No"}
